System: K562
PROCEDURE DETAILS: NCI tumour cell line growth inhibition, 48 h
Counter-ions that a name gives are not always drawn. Activity calls are given as the source filed them. Cut-off read from the data, not from the text of the source: active = GI50 up to about 1.1 µM and inactive = higher.
Choose the fitting class; nothing outside class 1 (active), class 0 (inactive) is accepted.

[
  {
    "COMPOUND": "O=C1c2ccccc2C2(Br)C(=O)c3ccccc3C12 (stereo unspecified)",
    "ASSIGNED LABEL": "class 0"
  },
  {
    "COMPOUND": "CCOC(=O)CC/C(=N/Nc1ccc(Cl)cc1[N+](=O)[O-])C(=O)OCC",
    "ASSIGNED LABEL": "class 0"
  },
  {
    "COMPOUND": "CN(C)CCOc1ccc(/C(=C(/CCCl)c2ccccc2)c2ccccc2)cc1 [TOREMIFENE CITRATE]",
    "ASSIGNED LABEL": "class 0"
  },
  {
    "COMPOUND": "CCN(CC)Cc1ccccc1CC(=O)N1c2ccccc2C(=O)Nc2cccnc21",
    "ASSIGNED LABEL": "class 0"
  },
  {
    "COMPOUND": "Cc1csc2n(C)c(=O)c3ccccc3[n+]12",
    "ASSIGNED LABEL": "class 0"
  },
  {
    "COMPOUND": "O=C(O)CCCNc1ncc2c(n1)-c1ccccc1OC2",
    "ASSIGNED LABEL": "class 0"
  },
  {
    "COMPOUND": "Fc1ccc(F)c(C2SCc3nc4ccccc4n32)c1 (stereo unspecified)",
    "ASSIGNED LABEL": "class 0"
  },
  {
    "COMPOUND": "Nc1ncnn2c(C3OC(CO)C(O)C3O)ccc12 (stereo unspecified)",
    "ASSIGNED LABEL": "class 1"
  }
]

Outcome logged for "COc1ccc2[nH]c3c(C)c4ccnc(NCCCN(C)CCCNc5ccc([N+](=O)[O-])c6[nH]c7ccccc7c(=O)c56)c4c(C)c3c2c1" in this assay:
class 1

Status in this test for C[C@@H]1C[C@@H]2OC(=O)[C@]3(C)[C@H]2[C@@H](OC3(C)O)[C@]2(C)C(=O)C=C[C@@H]12 (stereo partly specified) ?
class 1

# outcome recorded in this test, key = CCN(CC)CCO/N=C1/C=C2CCC3C(CC[C@@]4(C)C3CC[C@]4(C)O)[C@@]2(C)CC1 (stereo partly specified)
class 0

Entry "CCOP(=O)(Nc1ccc(-c2ccccc2)cc1)OCC" : call = ?
class 0

Check the results log: what was the call for "c1ccc2c(c1)[nH]c1c2nc2ncccn21" ?
class 0

# outcome recorded in this test, key = "CC(=O)CC[N+](C)(C)C"
class 0

Recorded test outcome, item "O=C(/C=C/c1ccc([N+](=O)[O-])cc1)N1CCN(CCOC(c2ccc(F)cc2)c2ccc(F)cc2)CC1"
class 0

What outcome does the record of this test show for "Sc1nnc(COc2ccc(Cl)cc2Cl)[nH]1" ?
class 0

Record lookup: outcome of this test for "COc1ccc(CCCNC(=O)Cc2cc(OC)c(OC)cc2CO)cc1OC" ?
class 0

Tell me the assay call for "COc1ccc(/C=C2\N=C(c3ccccc3)OC2=O)cc1OC(C)=O" please.
class 0

How was COC(=O)C1C2C=CC(C2)N1[C@@H](C)c1ccccc1 (stereo partly specified) classified in this test?
class 0

Short answer needed: outcome of this test for "COc1ccc2c(c1)/C(=C(\C(Cl)=C(\Cl)N1CCCCC1)[N+](=O)[O-])N2" ?
class 0

Per the records of this test, what outcome belongs to CC(=O)OC1COC(n2nc(N)nc2C)C(OC(C)=O)C1OC(C)=O (stereo unspecified) ?
class 0
